Hello, the source for this data is patent US7566712B2, in case you need it.

Each item that follows carries a reported IC50.
ASSAYED TARGET: human capsaicin receptor (Homo sapiens)
Construct: pBK-CMV expression construct encoding the full length human capsaicin receptor; expressed in transfected cells
Sequence (Q8NER1 whole entry): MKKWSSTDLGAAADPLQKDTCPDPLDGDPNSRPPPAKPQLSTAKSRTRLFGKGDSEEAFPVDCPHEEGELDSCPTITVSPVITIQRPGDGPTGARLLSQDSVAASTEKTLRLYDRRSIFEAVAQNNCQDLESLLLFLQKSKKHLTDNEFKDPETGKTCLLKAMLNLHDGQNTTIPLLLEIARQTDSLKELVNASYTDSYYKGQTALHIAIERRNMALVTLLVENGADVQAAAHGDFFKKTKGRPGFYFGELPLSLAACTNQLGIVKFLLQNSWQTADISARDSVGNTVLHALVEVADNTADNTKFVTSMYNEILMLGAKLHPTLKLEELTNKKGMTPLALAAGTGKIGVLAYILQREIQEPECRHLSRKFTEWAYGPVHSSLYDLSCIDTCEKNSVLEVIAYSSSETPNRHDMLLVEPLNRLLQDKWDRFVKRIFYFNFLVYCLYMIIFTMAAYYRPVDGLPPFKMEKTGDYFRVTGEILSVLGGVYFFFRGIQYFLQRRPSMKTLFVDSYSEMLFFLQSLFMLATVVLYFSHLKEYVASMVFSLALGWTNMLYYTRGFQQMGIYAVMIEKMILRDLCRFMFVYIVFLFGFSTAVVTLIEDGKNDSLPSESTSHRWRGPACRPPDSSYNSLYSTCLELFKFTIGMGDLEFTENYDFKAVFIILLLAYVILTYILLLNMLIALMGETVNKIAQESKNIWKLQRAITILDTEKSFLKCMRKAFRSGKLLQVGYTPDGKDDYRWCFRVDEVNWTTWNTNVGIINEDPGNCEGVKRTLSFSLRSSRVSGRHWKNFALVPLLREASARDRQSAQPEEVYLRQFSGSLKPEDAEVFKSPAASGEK
EXPERIMENT NOTES: Calcium mobilization assay, determination of antagonist activity (Example 6)
Format: cell-based
RUN CONDITIONS: Table II; IC50 determined as described in Example 6

Examples from the recorded data:
SMILES ENTRY	ASSAY RESULT
Cc1cccnc1N1CCN(c2cc(-c3cccc(C(C)C)c3)nc(N3CCOCC3)n2)[C@H](C)C1	≤ 1 µM
COc1cccc(-c2cc(N3CCN(c4ncccc4C#N)C[C@H]3C)nc(N3CCOCC3)n2)c1	≤ 1 µM

So what's the measured IC50 for this one? Fc1ccc(-c2nc(N3CCOCC3)nc(N3CCN(c4ccccn4)CC3)n2)c(F)c1
≤ 1 µM

So what's the measured IC50 for this one? CCc1ccc(-c2cc(N3CCN(c4ncccc4Cl)C[C@H]3C)nc(N3CCOCC3)n2)cc1
≤ 1 µM

So what's the measured IC50 for this one? CCOc1cccc(-c2cc(N3CCN(c4ncccc4Cl)C[C@H]3C)nc(N3CCOCC3)n2)c1
≤ 1 µM

So what's the measured IC50 for this one? CCOc1cccc(-c2cc(N3CCN(c4ncccc4C(F)(F)F)C[C@H]3C)nc(N3CCOCC3)n2)c1
≤ 1 µM

So what's the measured IC50 for this one? Fc1ccc(-c2nc(N3CCOCC3)nc(N3CCN(c4ncccc4C(F)(F)F)CC3)n2)cc1F
≤ 1 µM

So what's the measured IC50 for this one? NC(=O)[C@@H]1CCCN1c1nc(-c2ccc(F)c(Cl)c2)cc(N2CCN(c3ncccc3C(F)(F)F)CC2)n1
≤ 1 µM

So what's the measured IC50 for this one? Fc1ccc(-c2cc(N3CCN(c4ncccc4C(F)(F)F)CC3)nc(OC3CCNCC3)n2)cc1Cl
≤ 1 µM

So what's the measured IC50 for this one? Cc1ccc(-c2cc(N3CCN(c4ncccc4C#N)C[C@H]3C)nc(N3CCOCC3)n2)cc1C
≤ 1 µM

So what's the measured IC50 for this one? C[C@@H]1CN(c2ncccc2Cl)CCN1c1cc(-c2ccc3ccccc3c2)nc(N2CCOCC2)n1
≤ 1 µM

So what's the measured IC50 for this one? C[C@@H]1CN(c2ncccc2C(F)(F)F)CCN1c1cc(-c2ccc3ccccc3c2)nc(N2CCOCC2)n1
≤ 1 µM

So what's the measured IC50 for this one? COc1ccc(-c2cc(N3CCN(c4ncccc4C(F)(F)F)C[C@H]3C)nc(N3CCOCC3)n2)cc1F
≤ 1 µM

So what's the measured IC50 for this one? COc1ccc(C(C)C)cc1-c1nc(N2CCOCC2)nc(N2CCN(c3ccccn3)CC2)n1
≤ 1 µM

So what's the measured IC50 for this one? Cc1ccc(-c2cc(N3CCN(c4ncccc4C(F)(F)F)C[C@H]3C)nc(N3CCOCC3)n2)cc1F
≤ 1 µM
